# measured_on: EGFR(T790M /L828R) (Homo sapiens, UniProt P00533, T790M)
# Sequence (P00533 695-1210 T790M, form open): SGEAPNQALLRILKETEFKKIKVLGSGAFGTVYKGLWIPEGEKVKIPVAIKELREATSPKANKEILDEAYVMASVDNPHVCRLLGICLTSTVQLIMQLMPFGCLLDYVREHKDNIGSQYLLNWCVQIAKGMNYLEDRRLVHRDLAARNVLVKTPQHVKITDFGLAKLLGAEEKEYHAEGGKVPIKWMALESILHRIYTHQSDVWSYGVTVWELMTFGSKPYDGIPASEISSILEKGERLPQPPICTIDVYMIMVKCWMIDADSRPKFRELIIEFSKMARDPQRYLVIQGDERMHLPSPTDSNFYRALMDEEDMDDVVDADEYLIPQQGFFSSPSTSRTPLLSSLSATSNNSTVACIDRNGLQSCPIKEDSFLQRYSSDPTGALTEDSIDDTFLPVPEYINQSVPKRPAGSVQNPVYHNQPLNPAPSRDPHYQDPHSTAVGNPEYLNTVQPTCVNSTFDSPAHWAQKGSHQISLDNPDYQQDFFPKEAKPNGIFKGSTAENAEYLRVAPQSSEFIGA
# assay_comment: Tyrosine kinase inhibition
# Format: biochemical
observation_type: pIC50
Notebook: values listed as pIC50 are -log10 of the concentration (mol/L).

Exam item: Which measured pIC50 value corresponds to COc1cc2c(Nc3ccc(Br)cc3F)ncnc2cc1OCCCCN(C)C.Cl.Cl [HA121-28] ?
Marked response: 6.78

====

# measured_on: BLK (Homo sapiens, UniProt P51451)
# Sequence (P51451 whole entry): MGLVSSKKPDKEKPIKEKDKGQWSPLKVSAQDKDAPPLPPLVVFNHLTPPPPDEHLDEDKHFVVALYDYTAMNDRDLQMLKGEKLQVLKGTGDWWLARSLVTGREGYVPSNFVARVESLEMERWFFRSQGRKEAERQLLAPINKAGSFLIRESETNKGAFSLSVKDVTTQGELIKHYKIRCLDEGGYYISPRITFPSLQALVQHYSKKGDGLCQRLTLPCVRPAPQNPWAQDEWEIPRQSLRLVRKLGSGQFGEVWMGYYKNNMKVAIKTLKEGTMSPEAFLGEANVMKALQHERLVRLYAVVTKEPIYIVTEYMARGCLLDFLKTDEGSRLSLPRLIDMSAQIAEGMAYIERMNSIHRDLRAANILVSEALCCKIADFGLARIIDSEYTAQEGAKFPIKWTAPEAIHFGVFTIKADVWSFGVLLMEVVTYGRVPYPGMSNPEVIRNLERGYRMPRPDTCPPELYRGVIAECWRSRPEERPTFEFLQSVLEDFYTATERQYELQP
observation_type: IC50

Exam item: For the compound shown here, COc1cc2c(Nc3ccc(Br)cc3F)ncnc2cc1OCCCCN(C)C.Cl.Cl [HA121-28] , give the reported IC50.
Marked response: 201 nM
